Listed here: items and their measured IC50.
# EXPERIMENTAL TARGET: UniProt:P31749
# Sequence (P31749 whole entry): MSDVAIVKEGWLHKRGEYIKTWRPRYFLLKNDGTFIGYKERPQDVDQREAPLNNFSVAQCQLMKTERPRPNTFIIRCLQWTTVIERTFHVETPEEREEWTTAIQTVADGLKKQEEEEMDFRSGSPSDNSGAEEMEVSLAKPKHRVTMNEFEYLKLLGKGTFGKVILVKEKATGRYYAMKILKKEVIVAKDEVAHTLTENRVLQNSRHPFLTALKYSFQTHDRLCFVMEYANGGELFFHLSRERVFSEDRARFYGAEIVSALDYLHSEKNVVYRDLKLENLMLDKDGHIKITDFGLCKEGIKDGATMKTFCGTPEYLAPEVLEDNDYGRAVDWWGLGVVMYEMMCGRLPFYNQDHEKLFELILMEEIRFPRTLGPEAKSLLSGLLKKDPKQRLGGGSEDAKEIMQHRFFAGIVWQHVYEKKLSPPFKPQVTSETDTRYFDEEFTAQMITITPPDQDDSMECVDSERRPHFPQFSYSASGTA

COMPOUND: NCC(c1ccc(F)c(F)c1)N1CCN(c2ncnc3c2NC(=O)CN3)CC1 (stereo not drawn) [Compound A48]
IC50: > 1 µM
--
COMPOUND: O=C1CNc2ncnc(N3CCN(C(CN4CCC4)c4ccccc4Cl)CC3)c2N1 (stereo not drawn) [Compound A42]
IC50: > 1 µM
--
COMPOUND: CNCC(c1ccc(F)c(F)c1)N1CCN(c2ncnc3c2NC(=O)CN3)CC1 (stereo not drawn) [Compound A50]
IC50: > 1 µM
--
COMPOUND: CN(C)CC(c1ccc(F)c(Cl)c1)N1CCN(c2ncnc3c2NC(=O)CN3)CC1 (stereo not drawn) [Compound A54]
IC50: > 1 µM
--
COMPOUND: CN(C)CC(c1cccc(Cl)c1)N1CCN(c2ncnc3c2NC(=O)CN3)CC1 (stereo not drawn) [Compound A27]
IC50: > 1 µM
--
COMPOUND: Cc1ccccc1C(CN(C)C)N1CCN(c2ncnc3c2NC(=O)CN3)CC1 (stereo not drawn) [Compound A45]
IC50: > 1 µM
--
COMPOUND: NCC(c1ccc(C(F)(F)F)cc1)C1CCN(c2ccnc3c2CCCN3)CC1 (stereo not drawn) [Compound A1]
IC50: 0.101 to 0.5 µM
--
COMPOUND: NCC(c1ccc(Cl)cc1)N1CCN(c2ncnc3c2OCCN3)CC1 (stereo not drawn) [Compound A11]
IC50: 0.101 to 0.5 µM
--
COMPOUND: O=C1CNc2ncnc(N3CCN(C(CN4CCCC4)c4ccc(F)c(F)c4)CC3)c2N1 (stereo not drawn) [Compound A52]
IC50: > 1 µM
--
COMPOUND: NCC(c1ccc(C(F)(F)F)cc1)N1CCN(c2ncnc3c2CCCN3)CC1 (stereo not drawn) [Compound A16]
IC50: 0.025 to 0.1 µM
--
COMPOUND: NCC(c1ccc(C(F)(F)F)cc1)C1CCN(c2ccnc3c2CCN3)CC1 (stereo not drawn) [Compound A2]
IC50: 0.025 to 0.1 µM
--
COMPOUND: CN(C)CC(c1ccccc1F)N1CCN(c2ncnc3c2NC(=O)CN3)CC1 (stereo not drawn) [Compound A36]
IC50: > 1 µM
--
COMPOUND: O=C1CNc2ncnc(N3CCN(C(CN4CCCC4)c4ccccc4Cl)CC3)c2N1 (stereo not drawn) [Compound A43]
IC50: > 1 µM
--
COMPOUND: CN(C)CC(c1ccc(C(F)(F)F)cc1)N1CCN(c2ncnc3c2NC(=O)CN3)CC1 (stereo not drawn) [Compound A28]
IC50: 0.101 to 0.5 µM
--
COMPOUND: O=C1CNc2ncnc(N3CCN(C(CN4CCCCC4)c4ccc(F)c(Cl)c4)CC3)c2N1 (stereo not drawn) [Compound A57]
IC50: > 1 µM
--
COMPOUND: CNCC(c1ccc(Cl)c(F)c1)N1CCN(c2ncnc3c2NC(=O)CN3)CC1 (stereo not drawn) [Compound A59]
IC50: > 1 µM
--
COMPOUND: CN(C)CC(c1ccc(Cl)cc1)N1CCN(c2ncnc3c2CCCN3)CC1 (stereo not drawn) [Compound A8]
IC50: 0.025 to 0.1 µM
--
COMPOUND: CN(C)CC(c1ccc(F)cc1)N1CCN(c2ncnc3c2NC(=O)CN3)CC1 (stereo not drawn) [Compound A24]
IC50: > 1 µM
--
COMPOUND: O=C1CNc2ncnc(N3CCN(C(CN4CCC4)c4ccccc4F)CC3)c2N1 (stereo not drawn) [Compound A37]
IC50: > 1 µM
--
COMPOUND: CN(C)CC(c1ccc(C(F)(F)F)cc1)N1CCN(c2ncnc3c2CCCN3)CC1 (stereo not drawn) [Compound A9]
IC50: 0.025 to 0.1 µM
--
COMPOUND: NCC(c1ccc(C(F)(F)F)cc1)C1CCN(c2ccnc3c2CCC3)CC1 (stereo not drawn) [Compound A3]
IC50: > 1 µM

----------
# EXPERIMENTAL TARGET: P70S6K (T412E mutant, Millipore) (Homo sapiens (Human), UniProt P23443, T412E)
# Sequence (P23443 whole entry T412E): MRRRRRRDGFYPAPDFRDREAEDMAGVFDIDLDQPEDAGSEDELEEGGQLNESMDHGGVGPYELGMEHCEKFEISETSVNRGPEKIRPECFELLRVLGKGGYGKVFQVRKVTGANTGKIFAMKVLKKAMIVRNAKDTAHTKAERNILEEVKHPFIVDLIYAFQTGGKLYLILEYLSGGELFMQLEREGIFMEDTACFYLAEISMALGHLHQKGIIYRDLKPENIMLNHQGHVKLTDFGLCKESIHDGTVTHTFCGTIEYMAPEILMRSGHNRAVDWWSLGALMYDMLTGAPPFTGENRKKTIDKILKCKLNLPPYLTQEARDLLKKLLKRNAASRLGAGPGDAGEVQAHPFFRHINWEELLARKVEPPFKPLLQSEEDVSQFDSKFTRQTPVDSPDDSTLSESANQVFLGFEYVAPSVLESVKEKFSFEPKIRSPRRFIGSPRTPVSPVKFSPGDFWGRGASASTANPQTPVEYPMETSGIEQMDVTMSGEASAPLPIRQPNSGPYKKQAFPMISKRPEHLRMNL
# TEST SUMMARY: P70S6K enzyme assay
# CONDITION CONTEXT: 24 μM ATP, 90 min at 25° C.
pIC50: −log10 of the molar value.

COMPOUND: CN(C)CC(c1ccccc1Cl)N1CCN(c2ncnc3c2NC(=O)CN3)CC1 (centres unmarked)
pIC50: < 6.00

COMPOUND: Cc1ccccc1C(CN(C)C)N1CCN(c2ncnc3c2NC(=O)CN3)CC1 (centres unmarked)
pIC50: < 6.00

COMPOUND: CN(C)CC(c1ccc(C(F)(F)F)cc1)N1CCN(c2ncnc3c2NC(=O)CN3)CC1 (centres unmarked)
pIC50: 6.00 to 6.30

COMPOUND: NCC(c1ccc(C(F)(F)F)cc1)C1CCN(c2ccnc3c2CCCN3)CC1 (centres unmarked)
pIC50: 7.00 to 7.60

COMPOUND: O=C1CNc2ncnc(N3CCN(C(CN4CCCC4)c4ccccc4Cl)CC3)c2N1 (centres unmarked)
pIC50: < 6.00

COMPOUND: O=C1CNc2ncnc(N3CCN(C(CN4CCC4)c4ccc(F)c(F)c4)CC3)c2N1 (centres unmarked)
pIC50: < 6.00

COMPOUND: NCC(c1ccc(F)cc1)N1CCN(c2ncnc3c2CCCN3)CC1 (centres unmarked)
pIC50: < 6.00

COMPOUND: NCC(c1ccc(F)cc1)N1CCN(c2ncnc3c2CCN3)CC1 (centres unmarked)
pIC50: 6.00 to 6.30

COMPOUND: CN(C)CCNCC(c1ccc(C(F)(F)F)cc1)N1CCN(c2ncnc3c2NC(=O)CN3)CC1 (centres unmarked)
pIC50: < 6.00

COMPOUND: CN(C)CC(c1ccc(C(F)(F)F)c(F)c1)N1CCN(c2ncnc3c2CCCN3)CC1 (centres unmarked)
pIC50: 7.00 to 7.60

COMPOUND: NCC(c1ccc(Cl)cc1)N1CCN(c2ncnc3c2OCCN3)CC1 (centres unmarked)
pIC50: 6.00 to 6.30

COMPOUND: CNCC(c1ccccc1Cl)N1CCN(c2ncnc3c2NC(=O)CN3)CC1 (centres unmarked)
pIC50: < 6.00

COMPOUND: O=C1CNc2ncnc(N3CCN(C(CN4CCCCC4)c4ccc(Cl)cc4)CC3)c2N1 (centres unmarked)
pIC50: < 6.00

COMPOUND: CN(C)CC(c1ccc(C(F)(F)F)c(F)c1)N1CCN(c2ncnc3c2OCCN3)CC1 (centres unmarked)
pIC50: 6.00 to 6.30

COMPOUND: Cc1ccccc1C(CN1CCCC1)N1CCN(c2ncnc3c2NC(=O)CN3)CC1 (centres unmarked)
pIC50: < 6.00

COMPOUND: O=C1CNc2ncnc(N3CCN(C(CN4CCCCC4)c4ccccc4F)CC3)c2N1 (centres unmarked)
pIC50: < 6.00

COMPOUND: CN(C)CCNCC(c1cccc(C(F)(F)F)c1)N1CCN(c2ncnc3c2NC(=O)CN3)CC1 (centres unmarked)
pIC50: < 6.00

COMPOUND: CNCC(c1ccc(F)c(F)c1)N1CCN(c2ncnc3c2NC(=O)CN3)CC1 (centres unmarked)
pIC50: < 6.00

COMPOUND: O=C1CNc2ncnc(N3CCN(C(CN4CCCC4)c4ccccc4F)CC3)c2N1 (centres unmarked)
pIC50: < 6.00

COMPOUND: CN(C)CC(c1ccc(C(F)(F)F)cc1)N1CCN(c2ncnc3c2CCN3)CC1 (centres unmarked)
pIC50: 6.30 to 7.00

COMPOUND: O=C1CNc2ncnc(N3CCN(C(CN4CCCCC4)c4ccc(F)c(Cl)c4)CC3)c2N1 (centres unmarked)
pIC50: < 6.00

COMPOUND: CN(C)CC(c1ccc(Cl)cc1)N1CCN(c2ncnc3c2NC(=O)CN3)CC1 (centres unmarked)
pIC50: 6.00 to 6.30

COMPOUND: CN(C)CC(c1ccc(Cl)cc1)N1CCN(c2ncnc3c2CCCN3)CC1 (centres unmarked)
pIC50: 6.30 to 7.00

COMPOUND: CN(C)CC(c1ccc(F)cc1)N1CCN(c2ncnc3c2NC(=O)CN3)CC1 (centres unmarked)
pIC50: < 6.00

COMPOUND: CN(C)CC(c1ccccc1F)N1CCN(c2ncnc3c2NC(=O)CN3)CC1 (centres unmarked)
pIC50: < 6.00

COMPOUND: O=C1CNc2ncnc(N3CCN(C(CN4CCCC4)c4ccc(Cl)c(F)c4)CC3)c2N1 (centres unmarked)
pIC50: < 6.00

Origin of the recorded values: patent US10287300B2
